Kindly supply the reported Maximum mean fluorescence intensity values for the records listed here.
- measurement-target: T1, human CD19 on Raji cells (human, UniProt P15391 20-556)
- T1 construct: whole, on cells
- T1 sequence (looked up): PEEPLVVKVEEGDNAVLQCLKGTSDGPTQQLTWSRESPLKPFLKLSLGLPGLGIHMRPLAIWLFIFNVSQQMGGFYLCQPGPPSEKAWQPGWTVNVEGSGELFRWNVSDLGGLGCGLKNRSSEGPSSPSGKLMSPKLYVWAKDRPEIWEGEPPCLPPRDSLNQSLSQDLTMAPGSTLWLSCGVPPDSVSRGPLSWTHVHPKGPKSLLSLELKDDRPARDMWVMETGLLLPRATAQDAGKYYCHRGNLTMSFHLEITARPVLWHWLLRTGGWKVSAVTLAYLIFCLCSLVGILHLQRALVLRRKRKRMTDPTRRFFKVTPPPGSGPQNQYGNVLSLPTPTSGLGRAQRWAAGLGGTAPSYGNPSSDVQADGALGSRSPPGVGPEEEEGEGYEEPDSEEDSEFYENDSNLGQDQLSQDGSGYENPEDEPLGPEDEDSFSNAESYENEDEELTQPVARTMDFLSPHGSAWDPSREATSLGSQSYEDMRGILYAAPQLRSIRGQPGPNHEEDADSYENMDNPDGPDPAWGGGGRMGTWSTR
- test-protocol: FACS on Raji cells

Here are 2 binders together with their reported answers.
Input line: Respond only with Maximum mean fluorescence intensity recorded for F4.191.1 (antibody, human IgG1, V domains shown, human-murine chimeric antibody, human IgG1) VH: QVQLQQPGAELVRPGASVKLSCKASGYTFTSYWINWVKQRPGQGLEWIGNIHPSDSYTNYNQKFKDKATLTVDKSSSTAYMQFSSPTSEDSAVYYCTREDYYYGSNYDAMDYWGQGTSVTVSS VL: DIVMTQSHKFMSTSVGDRVNITCKASQDVGSSVAWYQQKPGQSPKLLIYWASTRHAGVPDRFTGSGSGADFTLTISNVQSEDLADYFCQQYSTYPLTFGAGTKLELK
Output line: 32300

Input line: Respond only with Maximum mean fluorescence intensity recorded for F4.272.13 (antibody, human IgG1, V domains shown, human-murine chimeric antibody, human IgG1) VH: QVQLKESGPGLVAPSQSLSITCTVSGFSLTDYGVSWIRQPPGKGLEWLGVIWGSETTFYNSALKSRLSISKDNSKSQLFLQMNSLQADDTAIYYCAKHHYYGGSFSMDYWGQGTSVTVSS VL: DIQMTQTTSSLSASLGDRVTISCRASQDINNYLNWYQQKPDGTVKFLIYYTSRLHSGVPSRFSGSGSGTDYSLTISDLEQEDIATYFCQQGNTLPYTFGGGTKLEIK
Output line: 27600

Next, consider the following binder.
Input line: Respond only with Maximum mean fluorescence intensity recorded for F3.121.4 (antibody, human IgG1, V domains shown, human-murine chimeric antibody, human IgG1) VH: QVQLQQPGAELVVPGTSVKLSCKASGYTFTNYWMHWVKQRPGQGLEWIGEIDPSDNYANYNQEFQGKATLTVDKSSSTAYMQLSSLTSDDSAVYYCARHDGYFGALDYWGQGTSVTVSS VL: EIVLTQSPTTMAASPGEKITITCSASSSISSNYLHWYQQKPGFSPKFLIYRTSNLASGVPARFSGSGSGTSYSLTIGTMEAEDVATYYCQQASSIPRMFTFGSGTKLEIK
Output line: 32900
